# Test system: OVCAR4
# protocolDetails: Euclidean distance of Cell Painting phenotypic profile (signed KS, 77 features) to DMSO centroid (dimensionless distance); 5 or 10 uM (library dependent); higher = stronger phenotypic change vs DMSO (phenoactivity)
# measurementParameters: 48 h
Structures can show the parent of a compound that is named as a salt.
Assign class by Euclidean distance: not lower than 1 means TRUE; lower than 1 means FALSE.

- compound: "NC(=O)[C@@H]1CSSCCC(=O)N[C@@H](CCCCN=C(N)N)C(=O)NCC(=O)N[C@@H](CC(=O)O)C(=O)N[C@@H](Cc2c[nH]c3ccccc23)C(=O)N2CCC[C@H]2C(=O)N1 [Eptifibatide Acetate]"
  labelValue: "TRUE"
- compound: "NC1=N[C@@]2(c3cc(NC(=O)c4ccc(F)cn4)ccc3F)COC[C@H]2CS1"
  labelValue: "TRUE"
- compound: "O=C1c2cccc(O)c2C(=O)c2c(O)cccc21"
  labelValue: "TRUE"
- compound: "Oc1cc(O)c(Cl)cn1"
  labelValue: "TRUE"
- compound: "CN1C(=O)C(Cc2c[nH]c3ccccc23)NC1=S (stereo unspecified)"
  labelValue: "TRUE"
- compound: "CC#C[C@]1(O)CC[C@H]2[C@@H]3CCC4=CC(=O)CCC4=C3[C@@H](c3ccc(N(C)C)cc3)C[C@@]21C"
  labelValue: "TRUE"
- compound: "CN(C)CCOC(c1ccccc1)c1ccccc1 [Diphenhydramine HCl]"
  labelValue: "FALSE"
- compound: "CC[C@H](C)[C@@H]1NC(=O)[C@H](Cc2ccc(O)cc2)NC(=O)[C@@H](N)CSSC[C@@H](C(=O)N2CCC[C@H]2C(=O)N[C@@H](CC(C)C)C(=O)NCC(N)=O)NC(=O)[C@H](CC(N)=O)NC(=O)[C@H](CCC(N)=O)NC1=O [Oxytocin (Syntocinon)]"
  labelValue: "FALSE"
- compound: "COC(=O)CCC(=O)CN [Methyl Aminolevulinate Hydrochloride]"
  labelValue: "TRUE"
- compound: "Nc1cc(C(F)(F)F)c(-c2nc(N3CCOCC3)nc(N3CCOCC3)n2)cn1"
  labelValue: "TRUE"
- compound: "C[C@@]1(c2cc(-c3cncnc3)c(F)cc2F)CCSC(N)=N1"
  labelValue: "FALSE"
- compound: "CCc1c(C)[nH]c2c1C(=O)C(CN1CCOCC1)CC2 (stereo unspecified) [Molindone hydrochloride]"
  labelValue: "FALSE"
- compound: "CCCCC(F)(F)[C@@]1(O)CC[C@H]2[C@@H](CC(=O)[C@@H]2CCCCCCC(=O)O)O1"
  labelValue: "TRUE"
- compound: "C[C@H](CCC(=O)O)[C@H]1CC[C@H]2[C@@H]3[C@H](O)C[C@@H]4C[C@H](O)CC[C@]4(C)[C@H]3C[C@H](O)[C@]12C"
  labelValue: "TRUE"
- compound: "Cc1oncc1C(=O)Nc1ccc(C(F)(F)F)cc1 [Leflunomide]"
  labelValue: "TRUE"

* * *

# Tested on: FB
# protocolDetails: Euclidean distance of Cell Painting phenotypic profile (signed KS, 77 features) to DMSO centroid (dimensionless distance); 5 or 10 uM (library dependent); higher = stronger phenotypic change vs DMSO (phenoactivity)
# measurementParameters: 48 h
Structures can show the parent of a compound that is named as a salt.
experimentalEndpoint: Euclidean distance

- compound: "CSCCNc1nc(SCCC(F)(F)F)nc2c1ncn2[C@@H]1O[C@H](COP(=O)(O)OP(=O)(O)C(Cl)(Cl)P(=O)(O)O)[C@@H](O)[C@H]1O [Cangrelor Tetrasodium]"
  experimentalEndpoint: "Euclidean distance"
  measurement: 1.25
- compound: "CC(C)(C)NC[C@H](O)c1ccc(O)c(CO)c1 [levalbuterol tartrate]"
  experimentalEndpoint: "Euclidean distance"
  measurement: 0.969
- compound: "Cc1cc(O)c2c(c1)C(=O)c1cccc(O)c1C2=O"
  experimentalEndpoint: "Euclidean distance"
  measurement: 1.64
- compound: "CCN(CC)CC(=O)Nc1c(C)cccc1C [Lidocaine hydrochloride]"
  experimentalEndpoint: "Euclidean distance"
  measurement: 0.862
- compound: "CO/N=C(\\C(=O)N[C@@H]1C(=O)N2C(C(=O)O)=C(CSc3nc(C)c(CC(=O)O)s3)CS[C@H]12)c1csc(N)n1 [Cefodizime Sodium]"
  experimentalEndpoint: "Euclidean distance"
  measurement: 0.804
- compound: "O=C(Nc1ccc(Cl)cc1)Nc1ccc(Cl)c(Cl)c1"
  experimentalEndpoint: "Euclidean distance"
  measurement: 1.74
- compound: "NC(=S)N/N=C/c1ncccc1N"
  experimentalEndpoint: "Euclidean distance"
  measurement: 3.09
- compound: "COc1cc2ncnc(Nc3ccc(O)c(Br)c3)c2cc1OC"
  experimentalEndpoint: "Euclidean distance"
  measurement: 1.7
- compound: "CC1=C(/C=C/C(C)=C/C=C/C(C)=C/C(=O)O)C(C)(C)CCC1"
  experimentalEndpoint: "Euclidean distance"
  measurement: 2.68
- compound: "CS(=O)(=O)CCNCc1ccc(-c2ccc3ncnc(Nc4ccc(OCc5cccc(F)c5)c(Cl)c4)c3c2)o1"
  experimentalEndpoint: "Euclidean distance"
  measurement: 4.09
- compound: "CC(C)(C)C(=O)Oc1ccc(S(=O)(=O)Nc2ccccc2C(=O)NCC(=O)O)cc1 [Sivelestat (ONO-5046)]"
  experimentalEndpoint: "Euclidean distance"
  measurement: 1.16
- compound: "Nc1nc(NC2CC2)c2ncn([C@H]3C=C[C@@H](CO)C3)c2n1 [Abacavir sulfate]"
  experimentalEndpoint: "Euclidean distance"
  measurement: 1.19
- compound: "CN(C)CCn1nnnc1SCC1=C(C(=O)O)N2C(=O)[C@@H](NC(=O)Cc3csc(N)n3)[C@H]2SC1 [Cefotiam hydrochloride]"
  experimentalEndpoint: "Euclidean distance"
  measurement: 0.93
- compound: "Cc1[nH]c2ccccc2c1CCNCc1ccc(/C=C/C(=O)NO)cc1"
  experimentalEndpoint: "Euclidean distance"
  measurement: 3.48
- compound: "CC[N+](CC)(CC)CC [Tetraethylammonium bromide]"
  experimentalEndpoint: "Euclidean distance"
  measurement: 0.968
- compound: "O=c1c(-c2ccc(O)cc2)coc2cc(O)ccc12"
  experimentalEndpoint: "Euclidean distance"
  measurement: 0.782
- compound: "CCCC(CCC)C(N)=O [Valpromide]"
  experimentalEndpoint: "Euclidean distance"
  measurement: 1.42
- compound: "C[C@@H]1O[C@@H](Oc2c(-c3ccc(O)c(O)c3)oc3cc(O)cc(O)c3c2=O)[C@H](O)[C@H](O)[C@H]1O"
  experimentalEndpoint: "Euclidean distance"
  measurement: 1.09
- compound: "CCC1(c2c[nH]cn2)Cc2ccccc2C1"
  experimentalEndpoint: "Euclidean distance"
  measurement: 0.848
- compound: "CCCc1nn(C)c2c(=O)[nH]c(-c3cc(S(=O)(=O)N4CCN(C)CC4)ccc3OCC)nc12 [Sildenafil]"
  experimentalEndpoint: "Euclidean distance"
  measurement: 1.08
- compound: "CN(C)CCOC(c1ccccc1)c1ccccc1 [Diphenhydramine HCl]"
  experimentalEndpoint: "Euclidean distance"
  measurement: 0.777
- compound: "CCCCC(CC)CN1CN(CC(CC)CCCC)CC(C)(N)C1 (centres undefined)"
  experimentalEndpoint: "Euclidean distance"
  measurement: 2.79
- compound: "CN[C@@H](C)C(=O)N[C@H]1CN(C(=O)CC(C)C)CC[C@H]2CC[C@@H](C(=O)NC(c3ccccc3)c3ccccc3)N2C1=O"
  experimentalEndpoint: "Euclidean distance"
  measurement: 0.766
- compound: "C[N+]1(C)[C@@H]2CC[C@H]1C[C@@H](OC(=O)C(O)c1ccccc1)C2 (some centres undefined) [Homatropine Methylbromide]"
  experimentalEndpoint: "Euclidean distance"
  measurement: 1.47
- compound: "CCC(C)(C)c1ccc(CC(C)CN2C[C@@H](C)O[C@@H](C)C2)cc1 (some centres undefined) [Amorolfine HCl]"
  experimentalEndpoint: "Euclidean distance"
  measurement: 1.61
- compound: "CCCCNc1ccc(C(=O)OCCOCCOCCOCCOCCOCCOCCOCCOCCOC)cc1 [Benzonatate]"
  experimentalEndpoint: "Euclidean distance"
  measurement: 1.36
- compound: "O=C(O)COC(=O)Cc1ccccc1Nc1c(Cl)cccc1Cl"
  experimentalEndpoint: "Euclidean distance"
  measurement: 0.795
- compound: "CC(C)(C)c1nc(-c2cccc(NS(=O)(=O)c3c(F)cccc3F)c2F)c(-c2ccnc(N)n2)s1 [Dabrafenib Mesylate]"
  experimentalEndpoint: "Euclidean distance"
  measurement: 3.79
- compound: "CCN1C[C@H](C)n2c(c(O)c3c(=O)n(Cc4ccc(F)c(Cl)c4)nc(C(=O)NC)c32)C1=O"
  experimentalEndpoint: "Euclidean distance"
  measurement: 0.927
- compound: "CNCC[C@H](Oc1cccc2ccccc12)c1cccs1 [Duloxetine HCl]"
  experimentalEndpoint: "Euclidean distance"
  measurement: 1.48
- compound: "FC(F)(F)C(Cl)Br (centres undefined)"
  experimentalEndpoint: "Euclidean distance"
  measurement: 1
- compound: "Cc1c(O)cccc1C(=O)N[C@@H](CSc1ccccc1)[C@H](O)CN1C[C@H]2CCCC[C@H]2C[C@H]1C(=O)NC(C)(C)C [Nelfinavir Mesylate]"
  experimentalEndpoint: "Euclidean distance"
  measurement: 1.59
- compound: "CCOC(=O)C1=C[C@]2(CC)CCCN3CCc4c(n1c1ccccc41)[C@@H]32"
  experimentalEndpoint: "Euclidean distance"
  measurement: 0.994
- compound: "CN(C)CCC(c1ccc(Br)cc1)c1ccccn1 (centres undefined) [Brompheniramine hydrogen maleate]"
  experimentalEndpoint: "Euclidean distance"
  measurement: 1.18
